Biological target: T1, mouse CD33 extracellular domain with 6xHis-tag (mouse, UniProt Q63994 18-240)
T1 construct: range 18-240; also called moCD33-His; moCD33(ECD)-His
T1 sequence: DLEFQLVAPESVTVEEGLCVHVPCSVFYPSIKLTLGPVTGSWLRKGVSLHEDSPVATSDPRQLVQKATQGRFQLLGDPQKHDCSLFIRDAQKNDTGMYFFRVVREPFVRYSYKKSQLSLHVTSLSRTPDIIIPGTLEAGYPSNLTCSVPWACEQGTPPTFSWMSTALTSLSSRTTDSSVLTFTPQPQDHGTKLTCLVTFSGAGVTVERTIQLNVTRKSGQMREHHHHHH
Experiment: ELISA on recombinant moCD33-His, purified hybridoma subclone antibody, readout RLU; antibody concentration not given
measuredAttribute: binding result

4-P3 (antibody, V domains shown, AlivaMab mouse hybridoma antibody; also called 4-P3-A) VH: EVQLLESGGGLVQPGGSLRLSCAASGFTFSTYAMSWVRQAPGKGLEWVSAISGRGGSTYYTDSVKGRFTISRDNSKNTVSLQMNSLRAEDTAVYYCAGRGDYYYYYGMDVWGQGTTVTVSA VL: DIVMTQSPLSSPVTLGQPASISCRSSQSLVYSDGNTYLSWLQQRPGQPPRLLIYKISNRFSGVPDRFSGSGAGTDFTLKISRVEAEDVGVYYCMQSTQFPHTFGQGTKLEIK: no binding
1-P23 (antibody, V domains shown, AlivaMab mouse hybridoma antibody; also called 1-P23-A) VH: QVQLVESGGGVVQPGRSLRLSCAASGFTFNSYGMHWVRQAPGKGLEWVAIISYDGSNKYYADSVKGRFTISRDNSKNTLYLQMNSLRAEDTAVYYCARDNYDSSGYNWYFDLWGRGTLVTVSS VL: SSELTQDPAVSVALGQTVRITCQGDSLRSYYASWYQQKPGQAPVLVIYGKNNRPSGIPDRFSGSSSGNTASLTITGAQAEDEADYYCNSRDSSGNLWVFGGGTKLTVL: no binding
2-N3 (antibody, V domains shown, AlivaMab mouse hybridoma antibody; also called 2-N3-A) VH: EVQLVQSGADVKKPGESLKISCKGSGFSFTSHWIAWVRQMPGKGLEWMGIIYPGDSDTRYSPSLQGRVTISADKSISTAYLQWSSLKASDTAMYFCARHETGNGYSYGMDVWGQGTTVTVSS VL: DIVMTQSPLSLPVTPGEPASISCRSSQSLLHSNGYNYLDWYLQKPGQSPQLLFSLGSNRASGVPDRFSGSGSGTDFSLKISRVEAEDVGLYYCMQALQPPLTFGGGTKVEIK: no binding
